Endpoint summary: IC50, system: IRE1a (Homo sapiens), multiple sources combined.

{"compound": "CN(C)C1CCN(c2ccc3c(C=O)c(O)ccc3c2)C1 (stereo not shown)", "experimental_value": "> 1000 nM"}
{"compound": "Cc1nc(NS(=O)(=O)c2ccc(F)cc2Cl)ccc1/C=C/c1cnc(NC2CCC(N(C)C)CC2)nc1 (stereo not shown)", "experimental_value": "≤ 1 nM"}
{"compound": "CN(C1CCCN(c2ccc3c(C=O)c(O)ccc3c2)C1)S(C)(=O)=O (stereo not shown)", "experimental_value": "< 1000 nM"}

Problem: Could you tell me which IC50 is on file for "Cc1c(F)c(NS(C)(=O)=O)c2ccccc2c1Oc1ncccc1-c1ccnc(N[C@H]2CCCNC2)n1" ?
Result: 16 nM

Problem: And "CCc1cc(-c2ccc(NS(=O)(=O)c3ccccc3Cl)c(F)c2)cc2cnc(N[C@H]3CC[C@H](N)CC3)nc12" ?
Result: ≤ 5 nM

Problem: And "CCc1cc(-c2cc(NC(=O)Cc3ccc(Cl)c(C(F)(F)F)c3)nn2C)cc2cnc(N[C@H]3CC[C@H](N)CC3)nc12" ?
Result: 5 to 50 nM

Problem: And "CNC(=O)c1cccc(-c2ccc3c(C=O)c(O)ccc3c2)n1" ?
Result: < 100 nM

Problem: And "O=Cc1c(O)ccc2cc(-c3cc(C(=O)N4CCOCC4)ccc3Cl)ccc12" ?
Result: > 1000 nM

Problem: And NC1CCC(Nc2ncc(CCc3ccc(NS(=O)(=O)c4ccccc4Cl)cc3)cn2)CC1 (stereo not shown) ?
Result: 1 to 5 nM

Problem: And "CCc1cc(-c2ccc(NS(=O)(=O)c3ccccc3Cl)c(F)c2)cc2cnc(N[C@H]3CCCNC3)nc12" ?
Result: < 5 nM
